study.system: Protein arginine N-methyltransferase 5 (Homo sapiens, UniProt O14744)
Sequence (O14744 whole entry): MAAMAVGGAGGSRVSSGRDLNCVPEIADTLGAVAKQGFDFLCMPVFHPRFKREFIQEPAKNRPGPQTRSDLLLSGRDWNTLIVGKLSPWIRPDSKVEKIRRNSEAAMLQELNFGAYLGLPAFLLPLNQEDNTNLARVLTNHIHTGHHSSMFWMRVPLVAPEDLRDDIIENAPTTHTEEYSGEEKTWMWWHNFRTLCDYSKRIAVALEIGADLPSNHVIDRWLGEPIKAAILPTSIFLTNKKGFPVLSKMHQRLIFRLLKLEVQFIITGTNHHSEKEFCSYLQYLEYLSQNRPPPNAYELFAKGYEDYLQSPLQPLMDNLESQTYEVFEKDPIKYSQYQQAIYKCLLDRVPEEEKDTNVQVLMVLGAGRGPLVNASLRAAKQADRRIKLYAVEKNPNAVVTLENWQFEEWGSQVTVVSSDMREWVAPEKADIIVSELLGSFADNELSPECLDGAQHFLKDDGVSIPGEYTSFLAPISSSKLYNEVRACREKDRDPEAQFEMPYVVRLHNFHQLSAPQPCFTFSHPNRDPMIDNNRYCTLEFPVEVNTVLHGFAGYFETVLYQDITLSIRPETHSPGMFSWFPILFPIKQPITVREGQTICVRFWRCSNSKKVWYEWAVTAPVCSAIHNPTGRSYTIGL
protocol.description: Inhibition of PRMT5 (unknown origin) using H2A and 3H-SAM as substrates preincubated for 20 mins followed by substrate addition incubated for 60 mins in presence of MTA by radiometric HotSpot assay
IC50 under 0.2 µM gets true, anything at or over 0.2 µM gets false.

Cn1ncc(-c2cnc3c(=O)[nH]nc(CN)c3c2)c1-c1sc2ccccc2c1C#N : false
Cn1ncc(-c2ccc3c(=O)[nH]nc(CN)c3c2)c1-c1sc2ccccc2c1C#N : true
Cn1ncc(-c2ccc3c(=O)[nH]nc(CN)c3c2)c1-c1sc2ncccc2c1C#N : true
Cn1ncc(-c2ccc3c(=O)[nH]nc(CN)c3c2)c1-c1sc2ccncc2c1C#N : false

Request: # check: IC50 < 0.2 µM for Cn1ncc(-c2ccc3c(=O)[nH]nc(CN)c3c2)c1-c1sc2cnccc2c1C#N
Response: false

Request: Is 0.2 µM strictly greater than the compound's reported IC50? compound: Cn1ncc(-c2ccc3c(=O)[nH]nc(CN)c3c2)c1-c1sc2cccnc2c1C#N
Response: false

----------
protocol.description: Metabolic stability in human hepatocytes assessed as intrinsic clearance
Type: ADME, cell-based, Hepatocyte
condition.context: read-out: CLH
Record yes whenever CLint scaled is at 40 mL/min/kg or higher; record no when lower.

Cn1ncc(-c2cc(Cl)c3c(=O)[nH]nc(CN)c3c2)c1-c1sc2ccccc2c1C#N : yes
CCOc1cc(-c2cnn(C)c2-c2sc3ccccc3c2C#N)cc2c(CN)n[nH]c(=O)c12 : no
Cn1ncc(-c2cc([C@@H]3CCCO3)c3c(=O)[nH]nc(CN)c3c2)c1-c1sc2ccccc2c1C#N : yes
COCc1cc(-c2cnn(C)c2-c2sc3ccccc3c2C#N)cc2c(CN)n[nH]c(=O)c12 : yes
Cn1ncc(-c2ccc3c(=O)[nH]nc(CN)c3c2)c1-c1c(F)c(Cl)cc(OC2CC2)c1C#N : no

Request: For this compound, is measured CLint scaled 40 mL/min/kg or higher? Cn1ncc(-c2cc(O)c3c(=O)[nH]nc(CN)c3c2)c1-c1sc2ccccc2c1C#N
Response: no

Request: Hello, I need to know if Cn1ncc(-c2cc(C(F)F)c3c(=O)[nH]nc(CN)c3c2)c1-c1sc2ccccc2c1C#N has measured CLint scaled not below 40 mL/min/kg. Thanks!
Response: yes

Request: Say whether Cc1cc(-c2cnn(C)c2-c2sc3ccccc3c2C#N)cc2c(CN)n[nH]c(=O)c12 shows CLint scaled of 40 mL/min/kg or more.
Response: no
